Each entry below lists one item and its recorded pIC50 value.
target or test system: p110α/p85α (Homo sapiens (Human))
Sequence (P42336 whole entry): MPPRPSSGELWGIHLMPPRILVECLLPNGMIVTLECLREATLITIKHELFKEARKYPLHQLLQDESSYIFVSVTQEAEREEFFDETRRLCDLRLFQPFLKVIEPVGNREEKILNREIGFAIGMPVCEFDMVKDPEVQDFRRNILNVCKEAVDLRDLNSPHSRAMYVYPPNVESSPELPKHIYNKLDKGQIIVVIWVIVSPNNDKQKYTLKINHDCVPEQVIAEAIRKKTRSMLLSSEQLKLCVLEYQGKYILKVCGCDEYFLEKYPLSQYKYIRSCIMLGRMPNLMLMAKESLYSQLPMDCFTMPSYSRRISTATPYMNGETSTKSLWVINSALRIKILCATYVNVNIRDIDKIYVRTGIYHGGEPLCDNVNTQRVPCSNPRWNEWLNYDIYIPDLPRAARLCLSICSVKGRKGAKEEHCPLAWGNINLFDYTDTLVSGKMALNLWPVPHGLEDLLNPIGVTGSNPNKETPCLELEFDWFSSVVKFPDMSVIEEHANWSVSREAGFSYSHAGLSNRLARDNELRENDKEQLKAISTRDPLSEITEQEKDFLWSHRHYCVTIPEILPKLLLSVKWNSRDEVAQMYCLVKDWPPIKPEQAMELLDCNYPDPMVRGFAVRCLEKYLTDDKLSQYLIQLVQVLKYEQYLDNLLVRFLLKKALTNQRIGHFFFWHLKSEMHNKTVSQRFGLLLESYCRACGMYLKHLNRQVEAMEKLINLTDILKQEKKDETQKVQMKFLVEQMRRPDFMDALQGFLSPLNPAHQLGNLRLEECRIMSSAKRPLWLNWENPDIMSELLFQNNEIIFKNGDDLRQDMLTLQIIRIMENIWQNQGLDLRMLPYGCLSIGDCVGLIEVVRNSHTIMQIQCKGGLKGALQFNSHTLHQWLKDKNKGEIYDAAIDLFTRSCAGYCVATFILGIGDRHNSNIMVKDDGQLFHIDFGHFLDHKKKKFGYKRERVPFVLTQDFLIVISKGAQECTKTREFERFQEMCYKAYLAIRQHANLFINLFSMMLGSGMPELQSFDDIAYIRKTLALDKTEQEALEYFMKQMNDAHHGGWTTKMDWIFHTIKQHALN
Sequence (P27986 whole entry partner): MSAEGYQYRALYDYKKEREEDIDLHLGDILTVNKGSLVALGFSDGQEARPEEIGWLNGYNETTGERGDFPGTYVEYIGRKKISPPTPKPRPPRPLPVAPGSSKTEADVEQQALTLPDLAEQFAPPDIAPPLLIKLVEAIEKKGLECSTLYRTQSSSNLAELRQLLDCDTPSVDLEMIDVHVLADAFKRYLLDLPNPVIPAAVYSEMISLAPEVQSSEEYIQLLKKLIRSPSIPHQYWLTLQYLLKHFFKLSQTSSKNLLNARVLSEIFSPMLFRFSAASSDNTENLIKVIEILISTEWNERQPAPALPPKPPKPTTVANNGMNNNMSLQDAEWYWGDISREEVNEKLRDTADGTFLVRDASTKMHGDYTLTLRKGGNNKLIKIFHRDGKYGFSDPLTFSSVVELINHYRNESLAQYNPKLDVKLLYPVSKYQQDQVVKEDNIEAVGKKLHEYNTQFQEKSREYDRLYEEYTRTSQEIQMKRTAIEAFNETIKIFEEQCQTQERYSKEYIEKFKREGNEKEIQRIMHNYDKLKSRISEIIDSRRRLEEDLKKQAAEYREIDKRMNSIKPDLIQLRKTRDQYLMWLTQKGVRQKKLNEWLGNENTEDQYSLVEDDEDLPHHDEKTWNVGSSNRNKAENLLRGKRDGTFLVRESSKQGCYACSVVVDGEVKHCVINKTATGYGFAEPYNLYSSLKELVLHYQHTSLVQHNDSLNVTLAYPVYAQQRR
assay protocol: PI 3-Kinase (human) HTRF assay, p110α/p85α
Assay type: biochemical
reported conditions: read-out: PI3K α IC50
pIC50: −log10 of the molar value.
measured metric: pIC50

>>> reported_result("Nc1nc2cc(-c3ccc4ncc(NCCN5CCOCC5)nc4c3)ccc2o1 [compound 133]")
"> 7.00"
>>> reported_result("Nc1nc2cc(-c3ccc4ncc(N5CCOCC5)n4n3)ccc2o1 [compound 57]")
"> 6.00"
>>> reported_result("CS(=O)(=O)N1CCN(Cc2cc3nc(-c4ccc5oc(N)nc5c4)nc(N4CCOCC4)c3s2)CC1 [compound 129]")
"> 7.00"
>>> reported_result("Nc1nsc2cc(-c3ccc4nccc(-c5ccncc5)c4c3)ccc12 [compound 13]")
"> 7.00"
>>> reported_result("CC(=O)Nc1nc2ccc(-c3ccc4nccc(-c5ccncc5)c4c3)cc2s1 [compound 2]")
"> 6.00"
>>> reported_result("Cn1cc(-c2ccnc3ccc(-c4ccc5oc(N)nc5c4)cc23)cn1 [compound 26]")
"> 7.00"
>>> reported_result("Nc1nc2cc(-c3ccc4nccc(-c5cn[nH]c5)c4c3)ccc2o1 [compound 20]")
"> 7.00"
>>> reported_result("Nc1noc2cc(-c3ccc4nccc(-c5ccncc5)c4c3)ccc12 [compound 16]")
"> 7.00"
>>> reported_result("Cc1cn(-c2cnc3ccc(-c4ccc5oc(N)nc5c4)cc3n2)cn1 [compound 177]")
"> 7.00"
